# testName: HepG2 cytotoxicity, primary screen, cytotoxicity control for P. falciparum antimalarial project, cell-based, ATP luminescence (AID 2303);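 also: 0% = DMSO wells and 100% = digitonin-killed cells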
# assaySetup: HepG2 viability, 24-48 h, at 10 µM, active compounds read high
Activity calls are given as the source filed them.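 The calls were made as follows: active = inhibition above 50%; inactive = the rest.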
endpoint: inhibition

substanceSmiles: CCOc1ccc(NC(=O)c2ccc(CN3CCCN(Cc4cccc(O)c4)CC3)cc2)cc1
result: 44% (inactive)
//
substanceSmiles: Cc1cc(=O)c(-c2ccc(Oc3ccc(C(F)(F)F)cc3)cc2)c(C)n1O
result: 18% (inactive)
//
substanceSmiles: N=C(N)c1ccc(NN=Cc2ccc(Oc3ccc(C(=N)N)cc3)cc2)cc1
result: 18% (inactive)
//
substanceSmiles: CC1(C)N=C(N)N=C(N)N1OCCSCCON1C(N)=NC(N)=NC1(C)C
result: 34% (inactive)
//
substanceSmiles: O=c1n(CC2CCCCC2)c2cc(Cl)cc(OCCNc3ccncc3)c2n1CC1CCCCC1
result: 2% (inactive)
//
substanceSmiles: Cc1noc(C)c1-c1ccc2c(Nc3ccccc3N3CCOCC3)c(C(=O)NCc3ccccc3)cnc2c1
result: 23% (inactive)
//
substanceSmiles: COc1ccc(CCNC(=O)c2cnc3c(c2)nc(-c2cnc(-c4ccccc4)[nH]2)n3CCc2cnc[nH]2)cc1
result: 16% (inactive)
//
substanceSmiles: COc1ccc(-c2cccc(NC(=O)c3ccc(Cl)cc3)c2)cc1CN1CCCN(C)CC1
result: 29% (inactive)
//
substanceSmiles: CCOc1cc(C(=O)N[C@@H](Cc2ccccc2)[C@H](O)CNC(C)(C)c2cccc(OC)c2)cc(N2CCCS2(=O)=O)c1
result: -5% (inactive)
//
substanceSmiles: Nc1ncc(-c2ccc(F)cc2)cc1-c1nc2ccc(Cl)cc2[nH]1
result: 45% (inactive)
//
substanceSmiles: CCCc1cc(=O)[nH]c(-n2nc(C)cc2NC(=O)CC(c2ccccc2)c2ccccc2)n1
result: 39% (inactive)
//
substanceSmiles: O=C(Nc1ccc(OC2CCN(Cc3ccco3)CC2)c(Cl)c1)c1ccc2ncccc2c1
result: -5% (inactive)
//
substanceSmiles: CC(C)c1sc(N2CCN(C)CC2)nc1C(=O)Nc1ccc(F)cc1C(F)(F)F
result: 3% (inactive)
//
substanceSmiles: CC(=O)Nc1cccc(-c2cn(-c3ccc(OCc4cccc(F)c4)c(Cl)c3)c3ncncc23)c1
result: 7% (inactive)
//
substanceSmiles: CN(C)CCOc1cc(NC(=O)Nc2ccc(-c3ccncc3)c3ccccc23)ccc1I
result: 35% (inactive)
//
substanceSmiles: O=C(CCn1c2ccccc2c2ccccc21)NN=Cc1ccco1
result: 6% (inactive)
//
substanceSmiles: CC(=O)Oc1cc(C)ccc1C1CCN(CCCCNC(=O)c2ccc(NC(=O)c3ccc(Cl)cc3)cc2)CC1
result: 12% (inactive)
//
substanceSmiles: Cc1cc(-c2ccc(CN3Cc4ccccc4C3)cc2)ccc1S(=O)(=O)NCCN1CCCC1
result: 49% (inactive)
//
substanceSmiles: O=C(/C=C/c1ccc(Cl)c(Cl)c1)NCCCCCN1CCC(CCCNC(=O)Nc2ccc(C(F)(F)F)cc2)CC1
result: -2% (inactive)

* * *

# targetDesc: Protein kinase 7 (PK7), Plasmodium falciparum 3D7 (PF3D7_0213400) (UniProt Q7YTF7)
# testName: inhibition of Plasmodium PK7 catalytic activity – biochemical, TCAMS antimalarial set, Kinase-Glo luminescence (AID 1159587)
# assaySetup: recombinant PfPK7, Kinase-Glo ATP depletion luminescence
The source made the active and inactive calls. The rule behind the calls is not given here.
endpoint: outcome

compound: O=[N+]([O-])c1cc(C=NNc2nc3nonc3nc2Nc2ccc(F)cc2)c(Cl)cc1Cl
targetDesc: Protein kinase 7 (PK7), Plasmodium falciparum 3D7 (PF3D7_0213400) (UniProt Q7YTF7)
endpoint: outcome
result: inactive

compound: COc1ccc(C(C(=O)NC2CCN(C[C@H](O)c3ccnc4ccc(OC)cc34)CC2)N2CCN(c3ccc([N+](=O)[O-])cc3)CC2)cc1 (some centres undefined)
targetDesc: Protein kinase 7 (PK7), Plasmodium falciparum 3D7 (PF3D7_0213400) (UniProt Q7YTF7)
endpoint: outcome
result: inactive

compound: Cc1ccc(N2C(N)=NC(N)=NC2c2ccccc2)cc1 (centres undefined)
targetDesc: Protein kinase 7 (PK7), Plasmodium falciparum 3D7 (PF3D7_0213400) (UniProt Q7YTF7)
endpoint: outcome
result: inactive

compound: O=C(c1cccs1)N1N=C(c2cccs2)CC1c1cccc([N+](=O)[O-])c1 (centres undefined)
targetDesc: Protein kinase 7 (PK7), Plasmodium falciparum 3D7 (PF3D7_0213400) (UniProt Q7YTF7)
endpoint: outcome
result: inactive

compound: CCCOC(=O)C1=C(C)NC2=C(C(=O)CC(c3ccc(OC)c(OC)c3)C2)C1c1cccc(O)c1 (centres undefined)
targetDesc: Protein kinase 7 (PK7), Plasmodium falciparum 3D7 (PF3D7_0213400) (UniProt Q7YTF7)
endpoint: outcome
result: inactive

compound: COCCOc1nc(N)nc2ncc(Cc3cc(OC)ccc3OC)c(C)c12
targetDesc: Protein kinase 7 (PK7), Plasmodium falciparum 3D7 (PF3D7_0213400) (UniProt Q7YTF7)
endpoint: outcome
result: inactive

compound: COCCCNC(=S)NN=C(C)c1ccccn1
targetDesc: Protein kinase 7 (PK7), Plasmodium falciparum 3D7 (PF3D7_0213400) (UniProt Q7YTF7)
endpoint: outcome
result: inactive

compound: COc1cc(C=NNc2nc(Nc3ccccc3)nc(Nc3ccccc3)n2)ccc1OCc1ccccc1[N+](=O)[O-]
targetDesc: Protein kinase 7 (PK7), Plasmodium falciparum 3D7 (PF3D7_0213400) (UniProt Q7YTF7)
endpoint: outcome
result: inactive

compound: O=C(n1c(-c2cc3ccccc3n2C(=O)C(F)(F)F)cc2ccccc21)C(F)(F)F
targetDesc: Protein kinase 7 (PK7), Plasmodium falciparum 3D7 (PF3D7_0213400) (UniProt Q7YTF7)
endpoint: outcome
result: inactive

* * *

# testName: antimalarial activity against Dd2 strain (AID 2302);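 also: 0% = DMSO untreated growth and 100% = chloroquine plus artemisinin killed control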
# assaySetup: P. falciparum Dd2 in RBCs, LDH growth readout, 72 h; at 2 µM; active compounds read high
endpoint: growth inhibition (%)

substanceSmiles: COc1ccccc1NS(=O)(=O)c1cc(C(=O)Nc2ccc(N3CCOCC3)c(S(=O)(=O)Nc3ccccc3Cl)c2)ccc1Cl
quantitativeResult: 25
--
substanceSmiles: O=c1[nH]c(NCCCCCN2CCC(c3c[nH]c4ccccc34)CC2)ncc1Cc1ccc(Cl)c(Cl)c1
quantitativeResult: 8
--
substanceSmiles: CS(=O)(=O)c1ccc(-c2cncc(Cl)n2)cc1
quantitativeResult: 95
--
substanceSmiles: CS(=O)(=O)CCNCc1ccc(-c2ccc3c(Nc4ccc(F)cc4Cl)ccnc3c2)o1
quantitativeResult: 98
--
substanceSmiles: COc1ccc(NS(=O)(=O)c2ccc(C(=O)Nc3ccc(C(F)(F)F)cc3)cc2)cc1N1CCN(CC2CC2)CC1
quantitativeResult: -5
--
substanceSmiles: COc1ccc2c(=O)c(I)c(C)[nH]c2c1
quantitativeResult: 96
--
substanceSmiles: CCN(CC)CCCNCc1ccc(-c2ccc(C(F)(F)F)cc2)cc1
quantitativeResult: 35

* * *

# targetDesc: L-lactate dehydrogenase (Plasmodium falciparum (isolate CDC / Honduras))
# testName: PfLDH activity inhibition – cell lysate, 3D7 strain, counter-screen for P. falciparum growth inhibition project (AID 2304);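 also: 0% = vehicle and 100% = reference inhibitor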
# assaySetup: P. falciparum 3D7 crude extract, LDH APAD/NBT absorbance; at 2 µM; active compounds read high
Reported inhibition is given for each of the following compounds.

compound: C=CCNS(=O)(=O)c1ccc(NC(=O)C(C)Oc2ccc([N+](=O)[O-])cc2)cc1 (stereo unspecified)
unitsSymbol: %
inhibition: -3
--
compound: Cc1ccc2nc(C)n(C3CCN(C(=O)Cc4ccc(F)c(F)c4)CC3)c2c1
unitsSymbol: %
inhibition: 0
--
compound: COc1cc2cc(-c3nc4ccccc4[nH]3)c(N)nc2cc1OC
unitsSymbol: %
inhibition: 1
--
compound: COc1cc(Nc2nccc(N3CCC(NC(=O)C4COc5ccccc5O4)C3)n2)cc(OC)c1OC (stereo unspecified)
unitsSymbol: %
inhibition: 5
--
compound: O=C(NCc1ccc(Cl)c(Cl)c1)[C@H]1CNCCN1C(=O)c1ccccc1
unitsSymbol: %
inhibition: 1
--
compound: O=C(NCC1CCN(CC2CCCCC2)C1)c1cc(-c2cccc(Cl)c2)cs1 (stereo unspecified)
unitsSymbol: %
inhibition: 5
--
compound: Cc1nc2nc(N)nc(N)c2c(C)c1Cc1ccccc1I
unitsSymbol: %
inhibition: 5
--
compound: CCOc1cc(N)c2nc3ccc([N+](=O)[O-])cc3cc2c1
unitsSymbol: %
inhibition: 7
--
compound: CNC(=O)CNC(=O)COc1cccc2ccccc12
unitsSymbol: %
inhibition: -8
--
compound: CC(=O)c1c(Cc2cccc(C(F)(F)F)c2)c[nH]c1C
unitsSymbol: %
inhibition: 7
--
compound: O=C(CCCCCNC(=O)c1ccc(O)c(-c2ccc(Cl)c(Cl)c2)c1)NC1CCCc2ccccc21 (stereo unspecified)
unitsSymbol: %
inhibition: -6

* * *

# targetDesc: Calcium-dependent protein kinase 1 (Plasmodium falciparum (isolate 3D7))
# testName: PfCDPK1 kinase inhibitors, biochemical, TCAMS library (AID 1159585);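 also: inhibitors leave more ATP so luminescence rises with inhibition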
# assaySetup: recombinant PfCDPK1, Kinase-Glo ATP depletion luminescence
Results with a measured potency or affinity are listed apart. Activity calls are given as the source filed them. No cut-off is given here; in the data, nearly all actives have IC50 up to about 0.98 µM.
endpoint: outcome

molecule: CCOc1cc(N)c2nc3ccc([N+](=O)[O-])cc3cc2c1
result: inactive

molecule: CN(C)Cc1c(O)ccc2[nH]c(-c3cccc(F)c3)nc12
result: inactive

molecule: COc1ccc(NC(=O)c2ccc(-c3cc(NC(=O)c4ccnc(N5CCCC5)c4)ccc3C)s2)cc1N1CCN(C)CC1
result: inactive

molecule: COc1ccc(CN2CCC(CNCC(c3ccccc3)c3ccccc3)CC2)cc1
result: inactive

molecule: CC(C)NCc1ccc(-c2ccc(-c3nc4ccc(F)cc4[nH]3)cc2)cc1
result: inactive

molecule: CC1(C)C(=O)Nc2ccccc2N1C(=O)CN1CCN(c2ccccc2O)CC1
result: inactive

molecule: Cn1cccc1CCNCc1ccc(-c2cccc(-c3nc4ccccc4[nH]3)c2)cc1
result: inactive

molecule: CC(C)CCN1CCCN(Cc2ccc(C(=O)Nc3ccc(Cl)cc3)cc2)CC1
result: inactive

molecule: Oc1ccccc1N1CCN(c2ccc(-c3nc4ccccc4[nH]3)cn2)CC1
result: inactive

molecule: CCCCN(Cc1cnccc1-c1ccc(Br)cc1)c1ccc(C(O)(C(F)(F)F)C(F)(F)F)cc1
result: inactive

molecule: COc1cccc(CN2CCCC(COC(c3ccc(F)cc3)c3ccc(F)cc3)C2)c1O (centres undefined)
result: inactive

molecule: N#Cc1ccc(C2CCN(CC[C@H](N)Cc3ccc(Cl)s3)CC2)cc1
result: inactive

molecule: CN(CCCN(C)c1cc(NC(=O)c2ccc(F)cc2)ccn1)Cc1cccc(F)c1
result: inactive

molecule: Cc1ccccc1C1CCN(c2ccc(C(=O)Nc3ccc(F)cc3)cn2)CC1
result: inactive

molecule: COc1ccc(C=NNc2cc(C)nc3ccc(OC)cc23)c(OC)c1
result: inactive

molecule: Cc1[nH]c(C)c(-c2ccc(-c3ccc4c(c3)OCO4)nc2)c(=O)c1Br
result: inactive

molecule: CN1CCCN(Cc2ccc(-c3cccc(NC(=O)c4ccc(C#N)cc4)c3)cc2)CC1
result: inactive

molecule: OC(CNCc1ccccc1OCc1ccccc1)c1cccc(I)c1 (centres undefined)
result: inactive

molecule: CNC(=O)/C=C/c1cc(NC(=O)Nc2ccnc3c(Br)cccc23)ccc1OC
result: inactive

molecule: OC(CNCc1ccco1)Cn1c2ccc(Br)cc2c2cc(Br)ccc21 (centres undefined)
result: inactive

molecule: Cc1ccc2c(=O)c3cc(C)ccc3[nH]c2c1
result: inactive

molecule: O=C(Cc1ccc(NC(=O)c2ccc(O)c(-c3ccc(Cl)c(Cl)c3)c2)cc1)NCc1cccc(C(F)(F)F)c1
result: inactive

molecule: COc1ccc(-c2cc(C(=O)N3CCc4ccccc43)c3ccccc3n2)cc1OC
result: inactive

molecule: COc1ccc(-c2ccccc2OCCCNc2nc(NCCc3ccc(O)cc3)nc(N3CCNCC3)n2)cc1
result: inactive

molecule: COc1ccc(CCNC(=O)c2cc3c(=O)n4cccc(C)c4nc3n(C)c2=N)cc1
result: inactive

molecule: CCOC(=O)CCc1cc(F)c(F)c(OC[C@H](O)CNC(C)(C)C(O)c2ccc3ccccc3c2)c1 (some centres undefined)
result: inactive

molecule: COc1cc2nc(NCCc3ccccc3)nc(N(C)Cc3ccccc3)c2cc1OC
result: inactive

molecule: CC(C)N1CCC(N(Cc2ccc(-c3ccc(C(F)(F)F)cc3)cc2)C(=O)Cn2c(SCc3cccc(F)c3F)cc(=O)c3c2CCC3)CC1
result: inactive

molecule: Cc1noc(-c2ccccc2)c1CN1CCCC2(CC(C(=O)NCc3cccc(F)c3F)=NO2)C1 (centres undefined)
result: inactive

molecule: CCCCCCn1c(Sc2ccc(C#N)c([N+](=O)[O-])c2)nnc1-c1cccs1
result: inactive

molecule: COc1ccc(-c2cccc(NC(=O)c3ccc(Cl)cc3)c2)cc1CN1CCCN(C)CC1
result: inactive

molecule: CCc1c[nH]c2c(N3CCCC3=O)cc(C(=O)N[C@@H](Cc3ccccc3)[C@H](O)CNC(C)(C)c3cccc(OC)c3)cc12
result: inactive

molecule: c1ccc(-c2[nH]ncc2Nc2ccnc3ccccc23)nc1
result: inactive

molecule: CSc1cccc(Nc2nc3ccc(S(=O)(=O)NC(C)C(C)C)cc3n2[C@H](C)C(C)(C)C)c1 (some centres undefined)
result: inactive

molecule: CCOc1ccc(-c2nonc2NC(=O)c2ccc(OC(C)C)cc2)cc1OCC
result: inactive

molecule: COc1ccccc1NC(=O)Nc1cccc(-c2cccc(-c3nc4ccc(C(F)(F)F)cc4[nH]3)c2)c1
result: inactive

molecule: CC1(C)CCC(C)(C)c2c1ccc(C1CCN(CCCCNC(=O)c3ccc(-c4ccc(Cl)cc4)cc3)CC1)c2O
result: inactive

molecule: COc1ccc(CCNCCCCCCNCCc2ccccc2Cl)cc1OC
result: inactive

molecule: CCN(c1ccccc1)S(=O)(=O)c1ccc(NC(=O)c2cc(-c3cc(C)ccc3O)n[nH]2)cc1
result: inactive
